assay: Cmax in Sprague-Dawley rat plasma at 1 mg/kg, iv; assay type: ADME, organism-based; set-up: dose 1 mg/kg, route intravenous
Measurement kind: Cmax
Write the numeric value and follow it with the unit.

Please fill in: Cmax reported for `Cc1ccc(NC(=O)c2cccc(C(F)(F)F)c2)cc1OC1CCN(C(=O)c2ccncc2)CC1` = 511 ng/mL

---

test: AUC(0 to t) in Sprague-Dawley rat plasma at 10 mg/kg, po; assay type: ADME, organism-based
Measurement kind: AUC(0-t) (ng·h/mL)
Number only, in ng·h/mL; omit the unit.

Please fill in: AUC(0-t) reported for `Cc1ccc(NC(=O)c2cccc(C(F)(F)F)c2)cc1OC1CCN(C(=O)c2ccncc2)CC1` = 715

---

target: Mast/stem cell growth factor receptor Kit (Homo sapiens) (UniProt P10721); assay: Inhibition of Tel-fused cKIT (unknown origin) transfected in mouse BAF3 cells assessed as decrease in cell proliferation after 72 hrs by celltiter-glo/CCK8 assay; assay type: cell-based
Sequence (P10721 whole entry, the tested form may be a part): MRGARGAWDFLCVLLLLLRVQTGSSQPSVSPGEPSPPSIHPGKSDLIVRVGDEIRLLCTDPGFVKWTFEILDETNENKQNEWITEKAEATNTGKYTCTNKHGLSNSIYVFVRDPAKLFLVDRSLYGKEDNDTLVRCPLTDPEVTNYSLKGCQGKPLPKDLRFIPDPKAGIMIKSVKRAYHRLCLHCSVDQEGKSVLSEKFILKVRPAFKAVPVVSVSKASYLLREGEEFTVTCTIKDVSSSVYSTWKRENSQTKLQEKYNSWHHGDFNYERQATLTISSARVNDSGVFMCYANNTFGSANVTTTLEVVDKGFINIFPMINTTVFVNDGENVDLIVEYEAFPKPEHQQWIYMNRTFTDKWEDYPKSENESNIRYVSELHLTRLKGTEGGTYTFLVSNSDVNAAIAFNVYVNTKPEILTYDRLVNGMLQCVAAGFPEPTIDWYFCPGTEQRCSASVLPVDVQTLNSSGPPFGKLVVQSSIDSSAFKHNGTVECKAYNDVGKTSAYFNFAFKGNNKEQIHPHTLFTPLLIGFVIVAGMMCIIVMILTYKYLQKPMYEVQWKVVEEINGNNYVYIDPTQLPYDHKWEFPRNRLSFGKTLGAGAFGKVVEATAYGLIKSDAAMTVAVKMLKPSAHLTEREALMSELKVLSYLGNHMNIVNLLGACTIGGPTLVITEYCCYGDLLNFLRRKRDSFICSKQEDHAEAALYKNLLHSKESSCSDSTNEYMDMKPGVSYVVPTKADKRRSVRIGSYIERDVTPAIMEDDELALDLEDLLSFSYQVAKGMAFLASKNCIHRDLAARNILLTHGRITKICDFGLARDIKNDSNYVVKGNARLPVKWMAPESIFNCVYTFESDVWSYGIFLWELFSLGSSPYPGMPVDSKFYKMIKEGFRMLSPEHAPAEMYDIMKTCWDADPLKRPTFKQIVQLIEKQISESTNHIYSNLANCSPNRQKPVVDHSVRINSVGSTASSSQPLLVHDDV
Give log10(GI50) for every item shown.
Answers are given as log10 of GI50 in nM.

Please fill in: log10(GI50) reported for `Cc1ccc(NC(=O)c2cccc(C(F)(F)F)c2)cc1OCCNC(=O)c1cccnc1` = 3.90

Please fill in: log10(GI50) reported for `Cc1ccc(NC(=O)c2ccc(C)c(C(F)(F)F)c2)cc1OC1CCN(C(=O)c2cncs2)CC1` = 2.00

Please fill in: log10(GI50) reported for `Cc1ccc(NC(=O)c2cc(Cl)cc(C(F)(F)F)c2)cc1OC1CCN(C(=O)c2cccnc2)CC1` = 2.20

Please fill in: log10(GI50) reported for `Cc1ccc(NC(=O)c2cc(Cl)cc(C(F)(F)F)c2)cc1OC1CCN(C(=O)c2ccno2)CC1` = 2.18

Please fill in: log10(GI50) reported for `COc1cccc(C(=O)Nc2ccc(C)c(OC3CCN(C(=O)c4cccnc4)CC3)c2)c1` = 3.17

Please fill in: log10(GI50) reported for `Cc1ccc(NC(=O)c2cnc3ccccc3c2)cc1OC1CCN(C(=O)c2cccnc2)CC1` = 3.74

Please fill in: log10(GI50) reported for `Cc1ccc(NC(=O)Nc2ccc(Cl)c(C(F)(F)F)c2)cc1OC1CCN(C(=O)c2cccnc2)CC1` = 3.41
